Target: human ALDH2 wild type (Homo sapiens, UniProt P05091)
Construct: His-tag (pTrcHis vector) (N); made in house; host or cells: E. coli BL21
Sequence (P05091 18-517): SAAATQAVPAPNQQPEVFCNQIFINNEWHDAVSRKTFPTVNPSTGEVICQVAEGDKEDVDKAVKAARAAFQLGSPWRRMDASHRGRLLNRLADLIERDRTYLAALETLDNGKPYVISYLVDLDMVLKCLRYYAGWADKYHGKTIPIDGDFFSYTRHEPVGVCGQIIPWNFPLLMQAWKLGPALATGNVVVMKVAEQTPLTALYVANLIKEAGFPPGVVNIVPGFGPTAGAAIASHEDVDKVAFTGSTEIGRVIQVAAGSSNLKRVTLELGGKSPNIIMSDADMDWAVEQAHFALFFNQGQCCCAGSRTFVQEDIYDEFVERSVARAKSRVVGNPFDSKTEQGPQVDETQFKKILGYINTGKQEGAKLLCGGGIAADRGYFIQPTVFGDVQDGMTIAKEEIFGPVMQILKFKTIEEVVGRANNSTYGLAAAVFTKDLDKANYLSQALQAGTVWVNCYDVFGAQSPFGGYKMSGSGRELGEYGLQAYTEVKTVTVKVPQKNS
Assay: ALDH2 enzymatic assay (NADH at 340 nm), recombinant wild type enzyme
Assay type: biochemical
Parameters: key: −: no activation or inhibition; +: activation less than control 1; ++: activation similar to control 1, within 10%; +++: activation more than control 1 and less than control (compound 161); ++++: activation similar to compound 161, within 10%
Details: activation relative to benchmarks control 1 and compound 161
PROPERTY_LABEL: ALDH2 (wild-type)

Here are 10 compounds together with their reported answers.
[
  {
    "COMPOUND": "COc1ccc(CNC(=O)c2cc(Br)ccc2C)cc1",
    "ALDH2 (wild-type)": "+"
  },
  {
    "COMPOUND": "COc1ccc(CNC(=O)c2c(Cl)cccc2OCC2CC2)cc1F",
    "ALDH2 (wild-type)": "++++"
  },
  {
    "COMPOUND": "COc1ccc(CNC(=O)c2c(Cl)cccc2NC2CCCC2)cc1F",
    "ALDH2 (wild-type)": "+"
  },
  {
    "COMPOUND": "COc1ccc(CNC(=O)c2c(Cl)ccnc2SCC(C)C)cc1F",
    "ALDH2 (wild-type)": "+"
  },
  {
    "COMPOUND": "COc1ccc(CNC(=O)c2c(Cl)ccnc2OCC2CC2)c(F)c1F",
    "ALDH2 (wild-type)": "+"
  },
  {
    "COMPOUND": "COc1ccc(CNC(=O)c2c(Cl)cccc2OCC2(C)CC2)cc1F",
    "ALDH2 (wild-type)": "++++"
  },
  {
    "COMPOUND": "COc1ccc(CNC(=O)c2c(Cl)cc[n+]([O-])c2OCC2CC2)cc1F",
    "ALDH2 (wild-type)": "+"
  },
  {
    "COMPOUND": "COc1ccc(CNS(=O)(=O)c2c(Cl)cccc2OCC2CC2)cc1F",
    "ALDH2 (wild-type)": "+"
  },
  {
    "COMPOUND": "COc1ccc(CNC(=O)c2c(Cl)ccnc2OCC2CCC2)cc1F",
    "ALDH2 (wild-type)": "+++"
  },
  {
    "COMPOUND": "CS(=O)(=O)c1ccc(CNC(=O)c2c(Cl)cccc2Cl)cc1",
    "ALDH2 (wild-type)": "+"
  }
]

# input Which ALDH2 (wild-type) reading was recorded for the compound COc1ccc(CNC(=O)c2c(C)cccc2NCC(C)C)cc1F ?
# output +

# input Which ALDH2 (wild-type) reading was recorded for the compound COc1ccc(CNC(=O)c2c(Cl)cccc2Oc2ccc(C)cc2)cc1F ?
# output +

# input Which ALDH2 (wild-type) reading was recorded for the compound O=C(NCc1ccc(OC(F)(F)F)c(F)c1)c1c(Cl)ccnc1Cl ?
# output +

# input Which ALDH2 (wild-type) reading was recorded for the compound COc1ccc(CNC(=O)c2c(Cl)cccc2Oc2cccc(C)c2)cc1F ?
# output +

# input Which ALDH2 (wild-type) reading was recorded for the compound COc1ccc(CNC(=O)c2c(Cl)cccc2NCC2CC2)cc1F ?
# output +++

# input Which ALDH2 (wild-type) reading was recorded for the compound COc1ccc(CNC(=O)c2c(Cl)ccnc2OCC2CC2)cc1C ?
# output +

# input Which ALDH2 (wild-type) reading was recorded for the compound COc1ccc(CNC(=O)c2c(Cl)cncc2OCC2CC2)cc1F ?
# output ++

# input Which ALDH2 (wild-type) reading was recorded for the compound CN(C)c1ccc(CNC(=O)c2c(Cl)cccc2Cl)cc1 ?
# output −

# input Which ALDH2 (wild-type) reading was recorded for the compound COc1ccc(CNC(=O)c2c(Cl)ccnc2OC)cc1F ?
# output +++

# input Which ALDH2 (wild-type) reading was recorded for the compound CCC(CC)Oc1nccc(C(F)(F)F)c1C(=O)NCc1ccc(OC)c(F)c1 ?
# output +

# input Which ALDH2 (wild-type) reading was recorded for the compound O=S(=O)(NCc1ccc(F)c(F)c1)c1c(Cl)cccc1Cl ?
# output −

# input Which ALDH2 (wild-type) reading was recorded for the compound COc1ccc(CNC(=O)c2c(Cl)ccnc2SC(C)C)cc1F ?
# output +

# input Which ALDH2 (wild-type) reading was recorded for the compound CCCS(=O)(=O)c1nccc(Cl)c1C(=O)NCc1ccc(OC)c(F)c1 ?
# output +

# input Which ALDH2 (wild-type) reading was recorded for the compound CCOc1cccc(Cl)c1C(=O)NCc1ccc(OC)c(F)c1 ?
# output ++

# input Which ALDH2 (wild-type) reading was recorded for the compound COc1ccc(CNC(=O)c2c(Cl)cccc2Br)cc1O ?
# output −

###

Assay: MLM stability T1/2
Assay type: in vitro ADME
Conditions: mouse, liver microsomes
Procedure: In vitro ADMET of compounds of the present disclosure was carried out according to known methods in the art. Below are data for certain compounds of the present disclosure.
PROPERTY_LABEL: half-life (min)
Reply numerically in min, unit not repeated.

[
  {
    "MOLECULE": "COc1ccc(CNC(=O)c2c(Cl)ccnc2OCC2CC2)cc1F",
    "half-life [min]": 2.08
  },
  {
    "MOLECULE": "COc1ccc(CNC(=O)c2c(Cl)cccc2OCC2CC2)cc1F",
    "half-life [min]": 0.753
  },
  {
    "MOLECULE": "O=C(NCc1ccc2c(c1)OCO2)c1c(Cl)cccc1Cl [Control 1, reference compound]",
    "half-life [min]": 0.753
  }
]

In the following, a different molecule is considered.
# input Which half-life reading was recorded for the molecule COc1ccc(CNC(=O)c2c(Cl)cc[n+]([O-])c2OCC2CC2)cc1F ?
# output 100

###

Target: human ALDH2*2 recombinant mutant enzyme (E487K) (Homo sapiens, UniProt P05091, E504K)
Construct: His-tag (pTrcHis vector) (N); made in house; host or cells: E. coli BL21
Assay: ALDH2 enzymatic assay (NADH at 340 nm), recombinant mutant enzyme
Assay type: biochemical
Design: key: −: no activation or inhibition; +: activation less than control 1; ++: activation similar to control 1, within 10%; +++: activation more than control 1 and less than control (compound 161); ++++: activation similar to compound 161, within 10%
Conditions: activation relative to benchmarks control 1 and compound 161
Description: ALDH2 catalyzes the oxidative reaction of substrate acetaldehyde to acetic acid using NAD^+ as a cofactor. Enzymatic activity, or catalytic rate, of aldehyde dehydrogenase (ALDH2) can be measured spectrophotometrically at UV wavelength λ340 nm by the accumulation of reduced product NADH derived from NAD^+. […] This method is well-established in the literature [e.g. D. K. Rex, W. F. Bosron, J. E. Smialek, T. K. Li, Alcohol Clin Exp Res 9, 147 (1985)]. […]
PROPERTY_LABEL: ALDH2 (mutant)

Here are 4 molecules together with their reported answers.
[
  {
    "MOLECULE": "COc1ccc(CNC(=O)c2c(Cl)cccc2OCC(C)N(C)C)cc1F (centres unmarked) [Compound 166]",
    "ALDH2 (mutant)": "++"
  },
  {
    "MOLECULE": "COc1ccc(CNC(=O)c2c(Cl)cccc2Cl)cc1F [Compound 102]",
    "ALDH2 (mutant)": "++"
  },
  {
    "MOLECULE": "CCC(C)Oc1nccc(Cl)c1C(=O)NCc1ccc(OC)c(F)c1 (centres unmarked) [Compound 202]",
    "ALDH2 (mutant)": "+"
  },
  {
    "MOLECULE": "COc1ccc(CNC(=O)c2c(Cl)ccnc2OC2CCC2)cc1F [Compound 197]",
    "ALDH2 (mutant)": "++++"
  }
]

# input Which ALDH2 (mutant) reading was recorded for the molecule COc1ccc(CNC(=O)c2c(Cl)ccnc2OCC2CCNC2)cc1F (centres unmarked) [Compound 205] ?
# output +
